System: SK-MEL-28
protocol-description: NCI tumour cell line growth inhibition, 48 h
Activity calls are given as the source filed them. Cut-off read from the data, not from the text of the source: active = GI50 up to about 1.1 µM and inactive = higher.
Answer with one of the outcomes given here: t (active), f (inactive)

molecule	assigned-label
CCCCCCCCCCOC1C(C(O)CNCCCN(C)C)OC2OC3(CCCCC3)OC21 (stereo unspecified)	f

Task: What was the test verdict on `C[C@]12CC/C(=N\O)C=C1CC[C@@H]1[C@@H]2CC[C@]2(C)C(=N/O)/C(=C/c3ccncc3)C[C@@H]12` ?
Output: f

Task: What was the test verdict on `COC(=O)c1cc2c(n1S(=O)(=O)c1ccc(C)cc1)C(=O)C(=O)c1[nH]cc(C(=O)OCc3ccccc3)c1-2` ?
Output: t

Task: What was the test verdict on `Clc1ccc(-c2noc(CN3CCCCC3)n2)cc1` ?
Output: f

Task: What was the test verdict on `CC(=O)OCCOCNC(=S)N/N=C/c1ccc([N+](=O)[O-])s1` ?
Output: f

Task: What was the test verdict on `CCOC(=O)CCCN` ?
Output: f
